Test system: Hepatotoxicity
Assay: FDA HLAED, gamma-glutamyl transferase (GGT) increase
Details: human
quantity.measured: GGT Increase - Activity Score

Cc1nnc2n1-c1ccc(Cl)cc1C(c1ccccc1Cl)=NC2 :: Inactive
CC(=O)N1CCN(c2ccc(OCC3COC(Cn4ccnc4)(c4ccc(Cl)cc4Cl)O3)cc2)CC1 (centres undefined) :: Inactive
NNCCc1ccccc1 :: Active
Clc1ccc(CCC(Cn2ccnc2)Sc2c(Cl)cccc2Cl)cc1 (centres undefined) :: Inactive
O=C1NC(c2ccccc2)(c2ccccc2)C(=O)N1COP(=O)(O)O :: Inactive
C[N+](C)(C)CCO.Cn1c(=O)c2[n-]cnc2n(C)c1=O :: Inactive
N#Cc1cc(NC(=O)C(=O)O)c(Cl)c(NC(=O)C(=O)O)c1 [LODOXAMIDE] :: Inactive
CN1CCN(C2=Nc3cc(Cl)ccc3Nc3ccccc32)CC1 :: Active
CC(C)(C(=O)O)c1ccc(C(O)CCCN2CCC(C(O)(c3ccccc3)c3ccccc3)CC2)cc1 (centres undefined) [FEXOFENADINE] :: Inactive

* * *

Test system: Hepatotoxicity
Assay: FDA HLAED, serum glutamic pyruvic transaminase (SGPT) increase
Conditions: human
quantity.measured: SGPT Increase - Activity Score

CC(=O)O[C@H]1C(=O)[C@@]2(C)[C@H]([C@H](OC(=O)c3ccccc3)[C@]3(O)C[C@H](OC(=O)[C@H](O)[C@@H](NC(=O)c4ccccc4)c4ccccc4)C(C)=C1C3(C)C)[C@]1(OC(C)=O)CO[C@@H]1C[C@@H]2O :: Inactive
Clc1ccc2c(c1)C(c1ccccc1)=NCc1nncn1-2 :: Inactive
CC(CCc1ccc(O)cc1)NCCc1ccc(O)c(O)c1 (stereo not given) :: Inactive
O=[N+]([O-])O[C@@H]1CO[C@H]2[C@@H]1OC[C@@H]2O [ISOSORBIDE MONONITRATE] :: Inactive
NC(=O)c1ncn([C@@H]2O[C@H](CO)[C@@H](O)[C@H]2O)n1 :: Inactive
Cc1c(OCC(F)(F)F)ccnc1C[S+]([O-])c1nc2ccccc2[nH]1 (stereo not given) :: Inactive
CC(O)(CS(=O)(=O)c1ccc(F)cc1)C(=O)Nc1ccc(C#N)c(C(F)(F)F)c1 (stereo not given) [BICALUTAMIDE] :: Active
COCCCC/C(=N\OCCN)c1ccc(C(F)(F)F)cc1 :: Active
CC(C)(C)NCC(O)c1ccc(O)c(CO)n1 (stereo not given) :: Inactive
CNCCC(Oc1ccc(C(F)(F)F)cc1)c1ccccc1 (stereo not given) :: Active
CC(=O)O[C@H]1C[C@@H]2CC[C@@H]3[C@H](CC[C@@]4(C)[C@H]3C[C@H]([N+]3(C)CCCCC3)[C@@H]4OC(C)=O)[C@@]2(C)C[C@@H]1N1CCCCC1.[Br-] [VECURONIUM BROMIDE] :: Inactive
COCC1=C(C(=O)O)N2C(=O)[C@@H](NC(=O)/C(=N\OC)c3csc(N)n3)[C@H]2SC1 :: Inactive
CC(C)(C)NCC(O)COc1cccc2c1CCC(=O)N2 (stereo not given) :: Inactive
Clc1ccc(CCC(Cn2ccnc2)Sc2c(Cl)cccc2Cl)cc1 (stereo not given) :: Inactive
CC(C)(C)NC[C@H](O)COc1nsnc1N1CCOCC1 :: Inactive
CC(C)OC(=O)CCC/C=C\C[C@@H]1[C@@H](CC[C@@H](O)CCc2ccccc2)[C@H](O)C[C@@H]1O :: Inactive
OC(c1cc(C(F)(F)F)nc2c(C(F)(F)F)cccc12)C1CCCCN1 (stereo not given) :: Active
CC(C(=O)O)c1ccc(-c2ccccc2)c(F)c1 (stereo not given) :: Inactive
O=P1(N(CCCl)CCCl)NCCCO1 (stereo not given) [CYCLOPHOSPHAMIDE ANHYDROUS] :: Active
CO[C@]12CC[C@@]3(C[C@@H]1[C@](C)(O)C(C)(C)C)[C@H]1Cc4ccc(O)c5c4[C@@]3(CCN1CC1CC1)[C@H]2O5 :: Inactive
Cc1ncc2n1-c1ccc(Cl)cc1C(c1ccccc1F)=NC2 :: Inactive
CCCCCCC(=O)O[C@H]1CC[C@H]2[C@@H]3CCc4cc(O)ccc4[C@H]3CC[C@]12C [ESTRADIOL ENANTHATE] :: Inactive
CNCC(O)c1ccc(OC(=O)C(C)(C)C)c(OC(=O)C(C)(C)C)c1 (stereo not given) :: Inactive
CC[C@H]1OC(=O)[C@H](C)[C@@H](O[C@H]2C[C@@](C)(OC)[C@@H](O)[C@H](C)O2)[C@H](C)[C@@H](O[C@@H]2O[C@H](C)C[C@H](N(C)C)[C@H]2O)[C@](C)(O)C[C@@H](C)[C@@H]2N[C@@H](COCCOC)O[C@H]([C@H]2C)[C@]1(C)O :: Inactive
CC(=O)N[C@@H](CS)C(=O)O :: Active
CCCCCCCCCCCCCCCCCC(=O)O.CC[C@H]1OC(=O)[C@H](C)[C@@H](O[C@H]2C[C@@](C)(OC)[C@@H](O)[C@H](C)O2)[C@H](C)[C@@H](O[C@@H]2O[C@H](C)C[C@H](N(C)C)[C@H]2OC(C)=O)[C@](C)(O)C[C@@H](C)C(=O)[C@H](C)[C@@H](O)[C@]1(C)O [ERYTHROMYCIN ACISTRATE] :: Active
Cc1nccn1CC1CCc2c(c3ccccc3n2C)C1=O (stereo not given) :: Inactive
Oc1ccc2c(c1)[C@@]13CCCC[C@@]1(O)[C@@H](C2)N(CC1CCC1)CC3 :: Inactive
COCCc1ccc(OCC(O)CNC(C)C)cc1 (stereo not given) :: Inactive
